# targetEntity: JAK2 (Homo sapiens (Human), UniProt O60674)
# Sequence (O60674 whole entry): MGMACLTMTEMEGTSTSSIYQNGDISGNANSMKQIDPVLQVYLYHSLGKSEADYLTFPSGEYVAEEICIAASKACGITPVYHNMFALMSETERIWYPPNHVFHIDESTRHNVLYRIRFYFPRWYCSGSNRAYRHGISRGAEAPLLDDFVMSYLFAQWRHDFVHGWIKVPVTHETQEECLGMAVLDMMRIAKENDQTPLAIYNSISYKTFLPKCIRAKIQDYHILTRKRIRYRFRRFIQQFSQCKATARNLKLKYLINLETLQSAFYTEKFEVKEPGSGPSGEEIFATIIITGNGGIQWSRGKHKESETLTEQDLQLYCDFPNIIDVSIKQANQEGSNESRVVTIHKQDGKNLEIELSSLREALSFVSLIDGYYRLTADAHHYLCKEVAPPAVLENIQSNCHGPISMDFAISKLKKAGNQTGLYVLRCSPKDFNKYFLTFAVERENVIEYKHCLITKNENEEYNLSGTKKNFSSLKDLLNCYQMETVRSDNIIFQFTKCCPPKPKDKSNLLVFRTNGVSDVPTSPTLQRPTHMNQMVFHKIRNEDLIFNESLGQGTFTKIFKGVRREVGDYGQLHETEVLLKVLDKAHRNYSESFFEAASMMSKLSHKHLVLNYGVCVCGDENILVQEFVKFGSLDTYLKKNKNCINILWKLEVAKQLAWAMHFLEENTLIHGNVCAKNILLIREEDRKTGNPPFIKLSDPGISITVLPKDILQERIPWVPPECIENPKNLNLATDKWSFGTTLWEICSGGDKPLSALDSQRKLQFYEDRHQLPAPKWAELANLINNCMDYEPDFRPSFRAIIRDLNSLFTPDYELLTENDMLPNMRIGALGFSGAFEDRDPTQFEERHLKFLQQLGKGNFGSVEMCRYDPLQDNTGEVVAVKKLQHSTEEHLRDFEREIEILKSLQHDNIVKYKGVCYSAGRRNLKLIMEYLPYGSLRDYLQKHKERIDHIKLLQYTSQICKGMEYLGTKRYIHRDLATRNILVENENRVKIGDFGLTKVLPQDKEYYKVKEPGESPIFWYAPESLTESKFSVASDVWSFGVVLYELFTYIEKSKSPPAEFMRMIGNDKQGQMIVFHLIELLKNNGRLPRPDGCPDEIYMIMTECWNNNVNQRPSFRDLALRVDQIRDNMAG
# procedureSummary: JAK2 activity inhibition assay (radioactive kinase assay / Caliper assay)
# Type: biochemical
# experimentalContext: read-out: JAK2 Ki
endpointLabel: Ki

Observe how each entry below is paired with its result.
{"compound": "O=C(O)Cc1ccc(Nc2nc(-c3c(F)cccc3Cl)nc3c2C(=O)NC3)cc1 [Compound I-10]", "observedResult": "0.1 to 1 µM"}
{"compound": "COCCNC(=O)c1ccc(Nc2cc(-c3c(F)cccc3F)nc3c2C(=O)NC3)nc1 [Compound I-141]", "observedResult": "0.01 to 0.1 µM"}
{"compound": "CC(C)(C(=O)N1CCCC1)c1ccc(Nc2nc(-c3c(F)cccc3F)nc3c2C(=O)NC3)cc1 [Compound I-196]", "observedResult": "0.1 to 1 µM"}
{"compound": "CC[C@]1(c2ccc(Nc3nc(-c4c(F)cccc4F)nc4c3C(=O)NC4)cc2)CCNC1=O [Compound I-177]", "observedResult": "0.01 to 0.1 µM"}

*Q* Could you tell me which Ki is on file for O=C1NCc2nc(-c3c(F)cccc3F)cc(Nc3ccc(N4CC(F)(F)C4)cn3)c21 [Compound I-229] ?
*A* 0.01 to 0.1 µM

*Q* Which value of Ki has been reported for O=C1NCc2nc(-c3c(F)cccc3F)nc(N[C@H]3C[C@H](C(=O)O)C3)c21 [Compound I-130] in the records?
*A* > 1 µM

*Q* Record request: Ki value, item COC(=O)Cc1ccc(Nc2nc(-c3c(F)cccc3F)nc3c2C(=O)NC3)cn1 [Compound I-18]
*A* > 1 µM

*Q* So what's the measured Ki for this one? C=C(C(=O)NCC)c1ccc(Nc2nc(-c3c(F)cccc3F)nc3c2C(=O)NC3)cc1 [Compound I-203]
*A* 0.1 to 1 µM

*Q* Need Ki of COc1ccc(Nc2cc(-c3c(F)cccc3F)nc3c2C(=O)NC3)nc1 [Compound I-167] , thanks.
*A* 0.1 to 1 µM

*Q* Name the recorded Ki for O=C1NCc2nc(-c3c(F)cccc3F)cc(Nc3ccc(N4CCCOCC4)cn3)c21 [Compound I-253] .
*A* 0.01 to 0.1 µM

###

# targetEntity: JAK2 (Homo sapiens (Human), UniProt O60674)
# procedureSummary: JAK2 activity inhibition assay (radioactive kinase assay / Caliper assay)
# Format: biochemical
# experimentalContext: read-out: JAK2 Ki
endpointLabel: Ki

Observe how each entry below is paired with its result.
{"compound": "CCNC(=O)c1ccc(Nc2cc(-c3c(F)cccc3F)nc3c2C(=O)NC3)nc1", "Ki": "10 to 100 nM"}
{"compound": "O=C1NCc2nc(-c3c(F)cccc3F)nc(Nc3ccc(CC(=O)N4CCOC[C@@H]4C(=O)O)cc3)c21", "Ki": "100 to 1000 nM"}
{"compound": "COC(=O)C(C)c1ccc(Nc2nc(-c3c(F)cccc3F)nc3c2C(=O)NC3)cc1 (stereo not shown)", "Ki": "10 to 100 nM"}

# context switch: different compound, same Ki
*Q* I am curious: what Ki value has been reported for O=C1NCc2nc(-c3c(F)cccc3F)nc(Nc3ccc(C(=O)N4CC5(COC5)C4)cc3)c21 ?
*A* 100 to 1000 nM

###

Parameter: Ki. Scope: all listed entries.
# targetEntity: JAK2 (Homo sapiens (Human))
# procedureSummary: JAK2 activity inhibition assay (radioactive kinase assay / Caliper assay)
# Format: biochemical
# experimentalContext: read-out: JAK2 Ki

Answered cases to consult:
{"compound": "CC(C(=O)O)c1ccc(Nc2nc(-c3c(F)cccc3F)nc3c2C(=O)NC3)cc1 (stereo not shown)", "Ki": "100 to 1000 nM"}
{"compound": "O=C(NCC(F)(F)F)c1ccc(Nc2cc(-c3c(F)cccc3F)nc3c2C(=O)NC3)nc1", "Ki": "10 to 100 nM"}
{"compound": "O=C1NCc2nc(-c3c(F)cccc3F)cc(Nc3ccc(N4C5COCC4C5)cn3)c21", "Ki": "10 to 100 nM"}
{"compound": "O=C(O)Cc1ccc(Nc2nc(-c3c(F)cccc3F)nc3c2C(=O)NC3)cc1", "Ki": "> 1000 nM"}
{"compound": "O=C(NCC1CC1)c1ccc(Nc2cc(-c3c(F)cccc3F)nc3c2C(=O)NC3)nc1", "Ki": "10 to 100 nM"}
{"compound": "CCOC(=O)Cc1ccc(Nc2nc(-c3c(Cl)cccc3Cl)nc3c2C(=O)NC3)cc1", "Ki": "100 to 1000 nM"}
{"compound": "O=C(O)Cc1ccc(Nc2nc(-c3c(F)cccc3F)nc3c2C(=O)NC3)cn1", "Ki": "> 1000 nM"}
{"compound": "O=C1NCc2nc(-c3c(F)cccc3F)nc(Nc3ccc(C4CCN(C5CCC5)C4=O)cc3)c21 (stereo not shown)", "Ki": "100 to 1000 nM"}

*Q* Given the compound CCOC(=O)Cc1ccc(Nc2nc(-c3ccccc3Cl)nc3c2C(=O)NC3)cc1 , what is its reported Ki?
*A* 100 to 1000 nM

*Q* Form field: reported Ki of COC(=O)Cc1ccc(Nc2cc(-c3c(F)cccc3F)nc3c2C(=O)NC3)nc1
*A* 10 to 100 nM

*Q* For the compound C[C@]1(c2ccc(Nc3nc(-c4c(F)cccc4F)nc4c3C(=O)NC4)cc2)NC(=O)NC1=O , what Ki is on record?
*A* 10 to 100 nM

*Q* Please give the measured Ki for this compound: O=C(NCCN1CCOCC1)c1ccc(Nc2nc(-c3c(F)cccc3F)nc3c2C(=O)NC3)cc1
*A* 10 to 100 nM

*Q* # lookup: Ki of CN1CC[C@@](C)(c2ccc(Nc3nc(-c4c(F)cccc4F)nc4c3C(=O)NC4)cc2)C1=O
*A* 100 to 1000 nM

*Q* Requested read-out: Ki. Entry: CCNC(=O)c1cnc(Nc2cc(-c3c(F)cccc3F)nc3c2C(=O)NC3)cc1F
*A* 100 to 1000 nM

*Q* What value of measured Ki is listed for CCNC(=O)[C@H]1C[C@H](Nc2nc(-c3c(F)cccc3F)nc3c2C(=O)NC3)C1 ?
*A* > 1000 nM

*Q* Given the entry C[C@H](CO)NC(=O)Cc1ccc(Nc2nc(-c3c(F)cccc3F)nc3c2C(=O)NC3)cc1 , report its measured Ki.
*A* 100 to 1000 nM

###

# targetEntity: UniProtKB O60674
# procedureSummary: JAK2 activity inhibition assay (radioactive kinase assay / Caliper assay)
# Assay type: biochemical
# experimentalContext: read-out: JAK2 Ki
endpointLabel: Ki

The following compounds have reported results that may help.
{"compound": "O=C1NCc2nc(-c3c(F)cccc3F)cc(Nc3ccc(C(=O)N4CCOCC4)cc3)c21 [Compound I-231]", "Ki": "0.01 to 0.1 µM"}
{"compound": "N[C@H]1CCCN(c2ccc(Nc3cc(-c4c(F)cccc4F)nc4c3C(=O)NC4)nc2)C1 [Compound I-143]", "Ki": "0.01 to 0.1 µM"}
{"compound": "O=C1NCc2nc(-c3c(F)cccc3Cl)nc(Nc3ccc([C@H]4CCNC4=O)cc3)c21 [Compound I-114]", "Ki": "0.1 to 1 µM"}

Proceed to the following item.
*Q* Value lookup for Ki; key = O=C(Cc1ccc(Nc2nc(-c3c(F)cccc3C(F)(F)F)nc3c2C(=O)NC3)cc1)NC1CCNCC1 [Compound I-83]
*A* 0.1 to 1 µM

###

# targetEntity: JAK2 (Homo sapiens (Human))
# procedureSummary: JAK2 activity inhibition assay (radioactive kinase assay / Caliper assay)
# Type: biochemical
# experimentalContext: read-out: JAK2 Ki
endpointLabel: Ki

Use the examples below as a reference point.
{"molecule": "CC(C)N1CCN(c2ccc(Nc3cc(-c4c(F)cccc4F)nc4c3C(=O)NC4)nc2)C(=O)C1", "observedResult": "0.01 to 0.1 µM"}
{"molecule": "CC(C)(O)CN1CCC(c2ccc(Nc3nc(-c4c(F)cccc4F)nc4c3C(=O)NC4)cc2)C1=O (stereo not drawn)", "observedResult": "0.1 to 1 µM"}

*Q* Value lookup for Ki; key = CC1(C)OCCN(c2ccc(Nc3cc(-c4c(F)cccc4F)nc4c3C(=O)NC4)nc2)C1=O
*A* 0.01 to 0.1 µM

*Q* Tell me the measured Ki of O=C(O)Cc1ccc(Nc2nc(-c3c(F)cccc3C(F)(F)F)nc3c2C(=O)NC3)cc1 , please.
*A* > 1 µM

*Q* Would you kindly share the measured Ki for O=C1NCc2nc(-c3c(F)cccc3F)cc(Nc3ccc(C(=O)N4CCOCC4)nc3)c21 ?
*A* 0.1 to 1 µM

*Q* Request the reported Ki associated with O=C(Cc1ccc(Nc2nc(-c3c(F)cccc3Cl)nc3c2C(=O)NC3)cc1)N[C@@H]1CCNC1
*A* 0.1 to 1 µM

*Q* What does the data say about its Ki? Entry: COC(=O)C1COCCN1C(=O)Cc1ccc(Nc2nc(-c3c(F)cccc3F)nc3c2C(=O)NC3)cc1 (stereo not drawn)
*A* 0.1 to 1 µM

*Q* Given the molecule CC1(C)C[C@@H](c2ccc(Nc3nc(-c4c(F)cccc4F)nc4c3C(=O)NC4)cc2)C(=O)N1 , what is its reported Ki?
*A* 0.1 to 1 µM
